molecular target: BLM (UniProt P54132 1-1417); assay: EMSA; ATPgS, 4 mM Mg2+, 10 mM KCl; EMSA: 40 mM Tris-HCl pH 8.0, 4 mM MgCl2, 5 mM DTT, 1 mM ATPgS, 0.1 ug BSA in 10 ul, 4 C, 20 min; +10 mM KCl for quadruplexes; 4% gel, 0.5x Tris-glycine pH 8.3; details: protein: recombinant; tags: C-terminal FLAG; label: 5'-32P; G4 tetramer of 4 parallel strands
Sequence (P54132 whole entry): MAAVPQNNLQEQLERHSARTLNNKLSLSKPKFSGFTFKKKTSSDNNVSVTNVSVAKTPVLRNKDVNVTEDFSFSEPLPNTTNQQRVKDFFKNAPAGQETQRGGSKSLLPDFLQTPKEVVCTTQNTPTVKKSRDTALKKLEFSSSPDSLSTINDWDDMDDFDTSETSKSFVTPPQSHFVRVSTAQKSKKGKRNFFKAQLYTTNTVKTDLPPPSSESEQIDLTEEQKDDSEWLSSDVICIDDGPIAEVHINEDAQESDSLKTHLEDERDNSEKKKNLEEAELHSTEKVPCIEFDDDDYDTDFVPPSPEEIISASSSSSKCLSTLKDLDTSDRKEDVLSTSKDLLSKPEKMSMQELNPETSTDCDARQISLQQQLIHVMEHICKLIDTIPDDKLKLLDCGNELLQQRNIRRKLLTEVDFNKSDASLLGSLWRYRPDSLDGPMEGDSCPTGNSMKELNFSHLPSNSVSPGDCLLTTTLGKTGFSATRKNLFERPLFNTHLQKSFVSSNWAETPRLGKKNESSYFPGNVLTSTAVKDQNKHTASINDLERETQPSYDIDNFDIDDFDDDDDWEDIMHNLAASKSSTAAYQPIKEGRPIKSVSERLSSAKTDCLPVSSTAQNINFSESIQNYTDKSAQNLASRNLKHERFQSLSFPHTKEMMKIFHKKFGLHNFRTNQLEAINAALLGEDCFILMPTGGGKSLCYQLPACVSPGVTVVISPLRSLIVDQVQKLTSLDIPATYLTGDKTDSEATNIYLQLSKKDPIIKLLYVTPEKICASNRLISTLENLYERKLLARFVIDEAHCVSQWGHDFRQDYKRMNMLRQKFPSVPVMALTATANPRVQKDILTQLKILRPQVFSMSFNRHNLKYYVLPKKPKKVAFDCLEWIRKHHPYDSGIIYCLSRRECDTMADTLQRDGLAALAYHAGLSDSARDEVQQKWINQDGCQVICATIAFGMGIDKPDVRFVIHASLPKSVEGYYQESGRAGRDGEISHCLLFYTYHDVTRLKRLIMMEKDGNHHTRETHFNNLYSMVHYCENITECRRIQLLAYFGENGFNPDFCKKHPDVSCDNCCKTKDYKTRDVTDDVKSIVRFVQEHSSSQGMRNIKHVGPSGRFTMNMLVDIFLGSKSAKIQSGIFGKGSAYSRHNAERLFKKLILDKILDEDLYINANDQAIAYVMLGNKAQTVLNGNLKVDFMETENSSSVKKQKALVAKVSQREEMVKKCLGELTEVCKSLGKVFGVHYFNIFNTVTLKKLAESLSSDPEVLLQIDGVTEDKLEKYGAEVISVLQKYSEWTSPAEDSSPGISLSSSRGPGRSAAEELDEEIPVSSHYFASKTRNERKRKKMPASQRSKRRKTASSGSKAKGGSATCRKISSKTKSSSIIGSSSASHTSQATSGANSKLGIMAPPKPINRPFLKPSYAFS
RECORDED METRIC: pKd
# pKd: negative log10 of molar concentration; output just the value

Input: Please indicate pKd recorded for TGGACCAGACCTAGCAGCTATGGGGGAGCTGGGGAAGGTGGGAATGTGA (structured_DNA) [G4 IgG quadruplex]
Output: 8.15

Origin of measurements: paper PMC3260238
